target: human P2X3 receptor (homomeric P2X3 channels) (Homo sapiens); construct: expressed in transfected cells; host or cells: HEK293 human embryonic kidney cells (HEK-hP2X3); experiment: FlexStation calcium fluorescence assay, homomeric P2X3 channels (HEK-hP2X3 cells); assay type: cell-based; conditions: HEK293 cells stably transfected with human P2X3; agonist 1 μM α,β-meATP; highest concentration tested 10 μM; read-out: Average pIC50 P2X3 (converted)
experimental-readout: IC50 (nM)

| compound | IC50 (nM) |
| --- | --- |
| COc1nc(C(C)C)c(Oc2cnc(N)nc2N)cc1SC [Compound 41] | 12.6 |

[1] CC#Cc1cc(Sc2cnc(N)nc2N)c(C(C)C)nc1OC [Compound 28]
[2] COc1nc(C(C)C)c(Sc2cnc(N)nc2N)cc1Br [Compound 24]
Hey, which is lower on measured IC50, 1 or 2 ? Identify your pick by its label.
2

* * *

Target: human P2X3 receptor (homomeric P2X3 channels) (Homo sapiens)
Construct: expressed in transfected cells; host or cells: HEK293 human embryonic kidney cells (HEK-hP2X3)
Sequence (P56373 1-397): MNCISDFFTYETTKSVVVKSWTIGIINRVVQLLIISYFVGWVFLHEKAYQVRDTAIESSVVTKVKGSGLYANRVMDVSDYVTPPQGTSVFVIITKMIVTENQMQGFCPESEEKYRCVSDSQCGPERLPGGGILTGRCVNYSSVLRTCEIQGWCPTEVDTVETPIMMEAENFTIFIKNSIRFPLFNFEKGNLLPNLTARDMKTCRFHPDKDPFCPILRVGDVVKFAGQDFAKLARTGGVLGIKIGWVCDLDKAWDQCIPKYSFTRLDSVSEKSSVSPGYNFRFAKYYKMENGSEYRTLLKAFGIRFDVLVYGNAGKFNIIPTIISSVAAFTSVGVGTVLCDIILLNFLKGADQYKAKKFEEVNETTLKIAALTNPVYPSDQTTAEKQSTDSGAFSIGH
Assay: FlexStation calcium fluorescence assay, homomeric P2X3 channels (HEK-hP2X3 cells)
Format: cell-based
Settings: HEK293 cells stably transfected with human P2X3; agonist 1 μM α,β-meATP; highest concentration tested 10 μM; read-out: Average pIC50 P2X3 (converted)
experimental-readout: IC50 (nM)

Please review the following examples before continuing.
| compound | IC50 / nM |
| --- | --- |
| COc1nc(C(C)C)c(Oc2cnc(N)nc2N)nc1C(F)(F)F | 100 |
| COc1nc(C(C)C)c(Nc2cnc(N)nc2N)cc1C(F)(F)F | 39.8 |
| COc1nc(C(C)C)c(Sc2cnc(N)nc2N)cc1SC(F)(F)F | 3980 |
| COc1nc(C(C)C)c(Sc2cnc(N)nc2N)cc1C(F)(F)F | 794 |
| COc1nc(C(C)C)c(Oc2cnc(N)nc2N)cc1S(C)(=N)=O (stereo not drawn) | 3160 |

[a] COc1nc(C(C)C)c(Oc2cnc(N)nc2N)cc1[S+](C)[O-] (stereo not drawn)
[b] COc1cc(C(C)C)c(Nc2cnc(N)nc2N)cc1C(F)(F)F
[c] COc1cc(Nc2cnc(N)nc2N)c(C(C)C)nc1OC
Reorder the items by IC50, least to greatest. Returns: the labels arranged in the requested order.
c, b, a

* * *

target: human P2X2/3 receptor (heteromeric P2X2/3 channels) (Homo sapiens, UniProt P56373+Q9UBL9); construct: expressed in transfected cells; host or cells: 1321N1 human astrocytoma cells (1321N1-hP2X2/3); assay: FlexStation calcium fluorescence assay, heteromeric P2X2/3 channels (1321N1-hP2X2/3 cells); assay type: cell-based; conditions: agonist 3 μM ATP, highest concentration tested 10 μM, read-out: Average pIC50 P2X2/3 (converted)
experimental-readout: IC50 (nM)

| compound | unit-text | IC50 |
| --- | --- | --- |
| COc1nc(C(C)C)c(Sc2cnc(N)nc2N)cc1Br [Compound 24] | nM | 398 |
| COc1nc(C(C)C)c(Oc2cnc(N)nc2N)nc1C(F)(F)F [Compound 46] | nM | 1000 |
| CC#Cc1cc(Sc2cnc(N)nc2N)c(C(C)C)nc1OC [Compound 28] | nM | 6310 |

[P] COc1nc(C(C)C)c(Sc2cnc(N)nc2N)cc1C(F)(F)F [Compound 34]
[Q] COc1nc(C(C)C)c(Nc2cnc(N)nc2N)cc1Cl [Compound 32]
Param pair: P , Q . Output: the one whose IC50 is numerically greater. Identify your pick by its label.
P

[P] COc1nc(C(C)C)c(Oc2cnc(N)nc2N)cc1SC [Compound 41]
[Q] COc1cc(C(C)C)c(Nc2cnc(N)nc2N)cc1Cl [Compound 39]
Hey, which is lower on measured IC50, P or Q ? Identify your pick by its label.
P

[P] C#Cc1cc(Sc2cnc(N)nc2N)c(C(C)C)nc1OC [Compound 29]
[Q] COc1nc(C(C)C)c(Oc2cnc(N)nc2N)cc1Cl [Compound 33]
Param pair: P , Q . Output: the one whose IC50 is numerically greater. Identify your pick by its label.
Q

* * *

Selectivity, X = S values by entry
target: human P2X3 receptor (homomeric P2X3 channels) (Homo sapiens, UniProt P56373); construct: expressed in transfected cells; host or cells: HEK293 human embryonic kidney cells (HEK-hP2X3); assay: FlexStation calcium fluorescence assay, homomeric P2X3 channels (HEK-hP2X3 cells); type: cell-based; conditions: potency ratio P2X3 over P2X2/3

| molecule | measured-result |
| --- | --- |
| COc1cc(Sc2cnc(N)nc2N)c(C(C)C)cc1OC [A, X = S] | >100 |

Field request: Selectivity, X = S | item: COc1cc(C(C)C)c(Sc2cnc(N)nc2N)cc1Cl
>50

Field request: Selectivity, X = S | item: COc1cc(C(C)C)c(Sc2cnc(N)nc2N)cc1I
48

Field request: Selectivity, X = S | item: COc1cc(C(C)C)c(Sc2cnc(N)nc2N)cc1S(C)(=O)=O
>18

* * *

target: human P2X3 receptor (homomeric P2X3 channels) (Homo sapiens, UniProt P56373); construct: expressed in transfected cells; host or cells: HEK293 human embryonic kidney cells (HEK-hP2X3); test: FlexStation calcium fluorescence assay, homomeric P2X3 channels (HEK-hP2X3 cells); format: cell-based; settings: HEK293 cells stably transfected with human P2X3; agonist 1 μM α,β-meATP; highest concentration tested 10 μM; read-out: Average pIC50 P2X3 (converted)
experimental-readout: IC50 (µM)

| molecule-smiles | IC50 (µM) |
| --- | --- |
| COc1ccc(Sc2cnc(N)nc2N)c(C(C)C)n1 | 3.98 |
| CCc1cc(OC)c(S(C)(=O)=O)cc1Sc1cnc(N)nc1N | 3.98 |

* * *

Biological target: human P2X3 receptor (homomeric P2X3 channels) (Homo sapiens)
Construct: expressed in transfected cells; host or cells: HEK293 human embryonic kidney cells (HEK-hP2X3)
Experiment: FlexStation calcium fluorescence assay, homomeric P2X3 channels (HEK-hP2X3 cells)
Assay type: cell-based
Settings: potency ratio P2X3 over P2X2/3 from pIC50s
Method: 1321N1 human astrocytoma and HEK293 human embryonic kidney cells were stably transfected with human P2X2 and P2X3 receptor subunits to form heteromeric P2X2/3 channels and passaged in flasks. […] Approximately 24 hours before the FlexStation calcium fluorescence experiment, cells were released from their flasks, centrifuged and re-suspended in nutrient medium. […] The agonist was dispensed by the FlexStation during fluorescence measurement to construct agonist activation and antagonist inhibition curves. […]
experimental-readout: Selectivity P2X3/P2X2/3

| molecule-smiles | Selectivity P2X3/P2X2/3 |
| --- | --- |
| COc1nc(C(C)C)c(Oc2cnc(N)nc2N)cc1S(N)(=O)=O | 19 |

[a] COc1nc(C(C)C)c(Oc2cnc(N)nc2N)cc1Cl
[b] COc1nc(C(C)C)c(Sc2cnc(N)nc2N)cc1C(F)(F)F
Hey, which is lower on measured Selectivity P2X3/P2X2/3, a or b ? Identify your pick by its label.
b
(b: 8.3, a: 26)

* * *

IC50 values by entry
target: human P2X2/3 receptor (heteromeric P2X2/3 channels) (Homo sapiens, UniProt P56373+Q9UBL9); construct: expressed in transfected cells; host or cells: 1321N1 human astrocytoma cells (1321N1-hP2X2/3); assay: FlexStation calcium fluorescence assay, heteromeric P2X2/3 channels (1321N1-hP2X2/3 cells); type: cell-based; conditions: agonist 3 μM ATP, highest concentration tested 10 μM, read-out: Average pIC50 P2X2/3 (converted)

Please review the following examples before continuing.
| compound | measured-result |
| --- | --- |
| COc1nc(C(C)C)c(Sc2cnc(N)nc2N)cc1S(C)(=O)=O | > 10 µM |
| COc1nc(C(C)C)c(Oc2cnc(N)nc2N)cc1[S+](C)[O-] (stereo not shown) | > 10 µM |
| COc1ccc(Sc2cnc(N)nc2N)c(C(C)C)n1 | > 10 µM |
| COc1nc(C(C)C)c(Oc2cnc(N)nc2N)cc1SC(F)(F)F | 1.26 µM |

Look up IC50 with human P2X2/3 receptor (heteromeric P2X2/3 channels) (Homo sapiens, UniProt P56373+Q9UBL9) for this compound: COc1nc(C(C)C)c(Sc2cnc(N)nc2N)cc1SC(F)(F)F
> 10 µM

Look up IC50 with human P2X2/3 receptor (heteromeric P2X2/3 channels) (Homo sapiens, UniProt P56373+Q9UBL9) for this compound: COc1cc(C(C)C)c(Nc2cnc(N)nc2N)cc1S(C)(=O)=O
> 10 µM

Look up IC50 with human P2X2/3 receptor (heteromeric P2X2/3 channels) (Homo sapiens, UniProt P56373+Q9UBL9) for this compound: COc1nc(C(C)C)c(Sc2cnc(N)nc2N)cc1C#N
> 10 µM
